Please go through the items and note down their switch fluorescence ratio.
- Tested on: ATP;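 further: ATP exposure 15 min at 22 °C before imaging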
- TEST NAME: switch fluorescence ratio, 500 uM ATP over buffer (Cy3 cluster intensity, sum of 5 cycles each) (fold (ratio)); higher = stronger signal-on switching upon ATP binding; sequences stand for … in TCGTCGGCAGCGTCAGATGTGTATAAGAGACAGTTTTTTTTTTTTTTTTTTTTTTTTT…TC
- CONDITION DETAILS: aptamer strand: ATP DNA aptamer (quencher-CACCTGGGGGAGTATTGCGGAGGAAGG + anchor), 100 nM annealed; ATP concentration: 500 uM
Answers are plain numbers.

Recorded switch fluorescence ratio, per entry:
ITEM SEQUENCE	MEASURE NAME	OBS VALUE
AATCTTTGCT	switch fluorescence ratio	1.01
GGAAAATCAA	switch fluorescence ratio	0.981
ATTGATGGCG	switch fluorescence ratio	0.982
CGGGTGAGGT	switch fluorescence ratio	1
TATAAATGGC	switch fluorescence ratio	1.01

Count: 2. Required value per item: switch fluorescence ratio.
1. AGTTGGCTTA
2. GGTTATCGAG

Result string:
[1.01, 0.975]
